# Test system: PC-3
# assay.info: NCI 60 single concentration growth inhibition
# Type: cell-based, human
# study.conditions: Homo sapiens, PC-3, Prostate cancer, read-out: GI%
The reader will find reported inhibition at 10 µM values listed item by item below.
Report the figure in % without appending any unit label.

Consider the following illustrative entries.
| compound | reported.result |
| --- | --- |
| COc1ccc(-c2nc3cc(Cl)c(Cl)cc3n2CC(=O)NN=Cc2cccc(OC)c2)cc1 [Compound 10c] | 29.5 |
| COc1ccc(-c2nc3cc(Cl)c(Cl)cc3n2CC(=O)NN=Cc2ccc(OCC(=O)O)cc2)cc1 [Compound 10f] | 8.65 |
| COc1ccc(-c2nc3cc(Cl)c(Cl)cc3n2CC(=O)NN=Cc2ccc(O)cc2)cc1 [Compound 10b] | 40.7 |
| CCOC(=O)C(C)Oc1ccc(C=NNC(=O)Cn2c(-c3ccc(OC)cc3)nc3cc(Cl)c(Cl)cc32)cc1 (stereo not drawn) [Compound 10j] | 38.5 |

Incoming: Value lookup for inhibition at 10 µM; key = COC(=O)COc1ccc(C=NNC(=O)Cn2c(-c3ccc(OC)cc3)nc3cc(Cl)c(Cl)cc32)cc1OC [Compound 10p]
Outgoing: 79.8

###

# Test system: HCC-2998
# assay.info: NCI 60 single concentration growth inhibition
# Format: cell-based, human
# study.conditions: Homo sapiens, HCC-2998, Colon cancer, read-out: GI%
Label class 1 when inhibition at 10 µM is at or above 30%; otherwise label class 0.

| compound | experimental.target | category |
| --- | --- | --- |
| COc1ccc(-c2nc3cc(Cl)c(Cl)cc3n2CC(=O)NN=Cc2cccc(OC)c2)cc1 [Compound 10c] | HCC-2998 | class 0 |
| COc1ccc(-c2nc3cc(Cl)c(Cl)cc3n2CC(=O)NN=Cc2ccc(OCC(=O)O)cc2)cc1 [Compound 10f] | HCC-2998 | class 0 |
| COc1ccc(C=NNC(=O)Cn2c(-c3ccc(OC)cc3)nc3cc(Cl)c(Cl)cc32)cc1 [Compound 10d] | HCC-2998 | class 1 |
| COC(=O)COc1cc(C=NNC(=O)Cn2c(-c3ccc(OC)cc3)nc3cc(Cl)c(Cl)cc32)ccc1OC [Compound 10o] | HCC-2998 | class 1 |

Incoming: I'd appreciate it if you could say whether COc1ccc(-c2nc3cc(Cl)c(Cl)cc3n2CC(=O)NN=Cc2ccc(O)c(OC)c2)cc1 [Compound 10l] has inhibition at 10 µM at least equal to 30%.
Outgoing: class 0

Incoming: I'd appreciate it if you could say whether COc1ccc(-c2nc3cc(Cl)c(Cl)cc3n2CC(=O)NN=Cc2cccc(OCC(=O)O)c2)cc1 [Compound 10e] has inhibition at 10 µM at least equal to 30%.
Outgoing: class 0

Incoming: I'd appreciate it if you could say whether COc1ccc(-c2nc3cc(Cl)c(Cl)cc3n2CC(=O)NN=Cc2ccc(O)cc2)cc1 [Compound 10b] has inhibition at 10 µM at least equal to 30%.
Outgoing: class 0

Incoming: I'd appreciate it if you could say whether COc1ccc(-c2nc3cc(Cl)c(Cl)cc3n2CC(=O)NN=Cc2ccc(OC)c(O)c2)cc1 [Compound 10k] has inhibition at 10 µM at least equal to 30%.
Outgoing: class 1

Incoming: I'd appreciate it if you could say whether COc1ccc(-c2nc3cc(Cl)c(Cl)cc3n2CC(=O)NN=Cc2cccc(O)c2)cc1 [Compound 10a] has inhibition at 10 µM at least equal to 30%.
Outgoing: class 1

Incoming: I'd appreciate it if you could say whether COC(=O)COc1ccc(C=NNC(=O)Cn2c(-c3ccc(OC)cc3)nc3cc(Cl)c(Cl)cc32)cc1 [Compound 10h] has inhibition at 10 µM at least equal to 30%.
Outgoing: class 1

Incoming: I'd appreciate it if you could say whether COC(=O)COc1ccc(C=NNC(=O)Cn2c(-c3ccc(OC)cc3)nc3cc(Cl)c(Cl)cc32)cc1OC [Compound 10p] has inhibition at 10 µM at least equal to 30%.
Outgoing: class 1

Incoming: I'd appreciate it if you could say whether CCOC(=O)C(C)Oc1ccc(C=NNC(=O)Cn2c(-c3ccc(OC)cc3)nc3cc(Cl)c(Cl)cc32)cc1 (stereo not shown) [Compound 10j] has inhibition at 10 µM at least equal to 30%.
Outgoing: class 0

Incoming: I'd appreciate it if you could say whether COC(=O)COc1cccc(C=NNC(=O)Cn2c(-c3ccc(OC)cc3)nc3cc(Cl)c(Cl)cc32)c1 [Compound 10g] has inhibition at 10 µM at least equal to 30%.
Outgoing: class 1
